Target Under Test: HLA-B*44:05 (Homo sapiens, UniProt P01889, A223V/A65T/A93T/A95T/D201E/D98Y/E176V/E187L/E204Q/E69K/G107R/H137Y/K202T/L105A/L119I/N104T/N87E/Q56L/Q94N/R106L/R155S/R180D/S101N/S121R/S35A/S48T/T118I/V36M/W191S/Y91S)
Test Description: MHC binding assay (UV-ligand exchange, β2m ELISA, peptide exchange yield)
Condition Info: binding to HLA-B*44:05
Recorded Metric: Peptide exchange (MHC class I binding score, peptide exchange yield)

Look over these answered cases.
> print(dat)
                                  substance      assay.value
1  105 (EEIFKTLNY; listed as Homo sapiens) [compound 105]  +++ (>50 = +++)
2  356 (TEAVLNRY; listed as Homo sapiens) [compound 356]   ++ (>20% = ++)
3  66 (AEVTLNNTI; listed as Homo sapiens) [compound 66]  +++ (>50 = +++)
4  191 (AEHDMKSVL; listed as Homo sapiens) [compound 191]  +++ (>50 = +++)
5  260 (VELMFPLLL; listed as Homo sapiens) [compound 260]  +++ (>50 = +++)

Ask: Fill in the blank: the reported Peptide exchange (MHC class I binding score, peptide exchange yield) of 447 (KEFGLDSVEL; listed as Homo sapiens) [compound 447] is ____.
Result: +++ (>50 = +++)

Ask: Also 140 (TEHSGIYSC; listed as Homo sapiens) [compound 140] , if possible.
Result: ++ (>20% = ++)

Ask: Also 167 (AETENRYCV; listed as Homo sapiens) [compound 167] , if possible.
Result: +++ (>50 = +++)

Ask: Also 60 (EEAVRSVAF; listed as Homo sapiens) [compound 60] , if possible.
Result: +++ (>50 = +++)
